Biological target: T1, human CD70, recombinant, N-terminally biotinylated (residues 39-193) (human, UniProt P32970 39-193, N-terminal biotin)
T1 construct: range 39-193; the same entry is used there; also called biotinylated human CD70; CD70 biotin
T1 sequence (looked up): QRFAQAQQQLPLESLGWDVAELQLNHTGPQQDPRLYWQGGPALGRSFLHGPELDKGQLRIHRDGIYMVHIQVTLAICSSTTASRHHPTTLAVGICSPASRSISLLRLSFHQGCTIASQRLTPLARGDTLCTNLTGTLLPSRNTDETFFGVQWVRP
Test: CD27 blocking ELISA, 3 µM scFv, anti-His/HRP
measureName: anti His/HRP
# respond with the number and nothing more

{"binder": "50-TC7-III-A11 (scFv, His-tagged; also called 1985) scFv: QVQLVQSGAEVKRPGASVKVSCKASGYTFTSYYMHWVRQAPGQGLEWMGIINPSGGSTSYAQKFQGRVTMTRDTSTSTVYMELSSLRSEDTAVYYCAIEPGYCSGGSCYPDAFDIWGQGTTVTVSSGGSGGSGGSGGSQSVLTQPPSASGTPGQRVTISCSGSSSNIGSDYVYWYQRVPGTAPKLLIYRDNQRPSGVPDRFSGSKSGTSASLAISGLRSDDEADYYCAAWDDSLSGWVFGGGTKVTVL", "anti His/HRP": 2.25}
{"binder": "62-TC7-V-D08 (scFv, His-tagged) scFv: QVQLQQWGAGLLKPSETLSLTCAVYGGSFSGYYWSWIRQPPGKGLEWIGEINHSGSTNYNPSLKSRVTISVDTSKNQFSLKLSSVTAADTAVYYCARVARGKGAFDIWGQGTMVTVSSGGSGGSGGSGGSQSALTQPASVSGSPGQSITISCTGTSSDVGGYNYVSWYQQHPGKAPKLLIYEVSSRPSGVSNRFSGSKSGNTASLTISGLQAEDEADYYCNSYTNSGSWVFGGGTKVTVL", "anti His/HRP": 2}

Return reported anti His/HRP. Input binder: 60-TC7-VII-C02 (scFv, His-tagged) scFv: QVQLQQWGAGLLKPSETLSLTCAVYGGSFSGYYWSWIRQPPGKGLEWIGEINHSGSTNYNPSLKSRVTISVDTSKNQFSLKLSSVTAADTAVYYCARSPLWFGPPDAFDIWGQGTMVTVSSGGSGGSGGSGGSQSALTQPPSASGSPGQSVSISCTGTSSDVGGYNYVSWYQQHPGKAPKLIIYDVDKRPSGIPERFSGSNSGNTATLTISGTQAMDEADYYCQAWDSSTEVVFGGGTKVTVL
1.27
